# test system: Cytochrome P450 2D6 (Homo sapiens)
# assay: Cytochrome P450 Family 2 Subfamily D Member 6 (CYP2D6) small molecule antagonists: luciferase reporter qHTS assay (AID 1671196); further: nearly all actives have a fitted effect of over 50% in size
# conditions: P450-Glo CYP2D6 enzyme assay, luciferin luminescence, 1 h; series mostly up to 115 µM
Records with an inconclusive call do not appear. Calls of active or inactive are those of the source. The call rests on the fitted dose curve; in most records, active means well fitted inhibition curve with a large enough effect in the repeat runs; inconclusive means weak or mixed curves; inactive means no such curve, though single readings can be large or run the other way.
Field 'call' accepts label 1 (active), label 0 (inactive)

| compound | class |
| --- | --- |
| CC(C)(OO)c1ccccc1 | label 0 |
| Oc1ccc(Cl)c(Cl)c1Cl | label 0 |
| CCC(COC(=O)c1cc(OC)c(OC)c(OC)c1)(c1ccccc1)N(C)C (stereo not drawn) | label 1 |
| C=CCOC(C)=O | label 0 |
| NC(=O)C(Cl)(Cl)Cl | label 0 |

Exam item: How did this test come out for C=CC(C)=O ?
Marked response: label 0

Exam item: Short answer needed: outcome of this test for O=C(O)COc1ccc(Cl)cc1 ?
Marked response: label 0

Exam item: Hey, what did the test say about Cl/C=C\Cl ?
Marked response: label 0
